Reference for the values: PubChem BioAssay (NCI)

System: KM12 colon
Assay: NCI tumour cell line growth inhibition, 48 h
readout_name: TGI

Solved entries (count: 4):
Query: Looking for the measured TGI of CC1(C)N=C(N)N=C(N)N1c1cccc(Cl)c1 , can you help?
Reply: > 100 µM

Query: Looking for the measured TGI of N#Cc1cccc(N2C(=O)C3C4C=CC(C3C2=O)C2C(=O)N(c3cccc(C#N)c3)C(=O)C42)c1 (stereo not given) , can you help?
Reply: > 56.2 µM

Query: Looking for the measured TGI of CCOC(=O)c1c(-c2ccccc2)c(OC)cn1C , can you help?
Reply: > 10 µM

Query: Looking for the measured TGI of Cc1cc(O)c(-c2ccc([C@@H](C)CN(C)C)cc2)c2c1[nH]c(=O)c1sccc12 , can you help?
Reply: 6.71 µM

Would you kindly look at the next entry?
Query: Looking for the measured TGI of CC(C)(C)N=NC(C)(C)N=C=O , can you help?
Reply: > 100 µM

----------
System: SNB-19 CNS
Experiment: NCI tumour cell line growth inhibition, 48 h
TGI by entry:

Solved entries (count: 2):
Query: Looking for the measured TGI of CC(=O)Oc1ccc2c(c1)C(=O)c1nc(C)c(C)nc1C2=O , can you help?
Reply: > 93.8 µM

Query: Looking for the measured TGI of CCC1([N+](=O)[O-])CN(N=O)C1 , can you help?
Reply: > 100 µM

Would you kindly look at the next entry?
Query: Looking for the measured TGI of C[C@]12C[C@H](O)[C@H]3[C@@H](CCC4=CC(=O)CC[C@@]43C)[C@@H]1CC[C@@H]2c1csc(-c2ccccc2)n1 , can you help?
Reply: > 100 µM

----------
Test system: UO-31 renal
Test: NCI tumour cell line growth inhibition, 48 h
TGI by entry:

Solved entries (count: 3):
Query: Looking for the measured TGI of COc1ccc(C2c3cc4c(cc3OC(Nc3ccccc3)C2C)OCO4)cc1 (centres undefined) , can you help?
Reply: > 100 µM

Query: Looking for the measured TGI of CCCCNC(=O)Cn1c2ccc(Br)cc2c2nc3ccccc3nc21 , can you help?
Reply: > 100 µM

Query: Looking for the measured TGI of CCOC(=O)/C=C/CCC(C)(C)COC(C)=O , can you help?
Reply: > 10 µM

Would you kindly look at the next entry?
Query: Looking for the measured TGI of CN1c2ccccc2C2=C(c3ccccc3)CC[C@@H](C(=O)N3C4CC5CC[C@@]4(CS3(=O)=O)C5(C)C)[C@@H]21 (some centres undefined) , can you help?
Reply: > 100 µM

----------
Test system: HOP-62 NSCLC
Experiment: NCI tumour cell line growth inhibition, 48 h
TGI by entry:

Query: Looking for the measured TGI of CNC(=O)CN(CC(=O)O)C(=O)NC , can you help?
Reply: > 100 µM

Query: Looking for the measured TGI of COc1ccc(-c2cc3cc(Cl)cc(Cl)c3oc2=O)cc1OC , can you help?
Reply: > 100 µM

Query: Looking for the measured TGI of CCCCn1c(=O)c(/C=C/C(=O)/C=C/c2cc3ccccc3n(CCCC)c2=O)cc2ccccc21 , can you help?
Reply: 4.08 µM

Query: Looking for the measured TGI of COc1ccc(OC(C)C(=O)O)c2c(=O)ccccc12 (configuration not stated) , can you help?
Reply: > 100 µM

Query: Looking for the measured TGI of NCCCCNCCCN1CCOC1=O , can you help?
Reply: > 100 µM

Query: Looking for the measured TGI of CNC(=S)N1CCN(C(C)=O)C1=S , can you help?
Reply: > 100 µM

New cases:
Query: Looking for the measured TGI of CCCn1cc2c3c(cccc31)C1C=C(C)CN(C)C1C2 (configuration not stated) , can you help?
Reply: 67.2 µM

Query: Looking for the measured TGI of COc1ccc(S(=O)(=O)N(C(C)=O)c2ccccc2/C=C/c2cc[n+]([O-])cc2)cc1 , can you help?
Reply: > 10 µM

Query: Looking for the measured TGI of O=c1[nH]c(=O)n(C2CC(O)C(CO)O2)cc1C(F)(F)F (configuration not stated) , can you help?
Reply: > 100 µM

Query: Looking for the measured TGI of CC1SC(c2ccc(Cl)cc2Cl)N(NC(=O)C(O)c2ccccc2)C1=O (configuration not stated) , can you help?
Reply: > 100 µM

Query: Looking for the measured TGI of Nc1ccc(/C=C/c2ccc3cccnc3c2)cc1 , can you help?
Reply: > 100 µM

Query: Looking for the measured TGI of CSc1ccc(/C=C2\N=C(c3ccccc3)N(c3nc4cc(Cl)c(F)cc4s3)C2=O)cc1 , can you help?
Reply: 98.7 µM

Query: Looking for the measured TGI of O=c1/c(=N\Nc2ccccc2)c2cccc3ccc4cccc1c4c32 , can you help?
Reply: > 100 µM

Query: Looking for the measured TGI of O=C(/C=C/C12c3ccccc3C(c3ccccc31)C1C(=O)NC(=O)C12)c1ccccc1 (configuration not stated) , can you help?
Reply: 4.38 µM

Query: Looking for the measured TGI of CC[PH+](CC)CC.[Cl][Au] , can you help?
Reply: 33.7 µM

Query: Looking for the measured TGI of C=C1C(OC(C)=O)CC(OC(C)=O)C2(C)C(OC(C)=O)C(OC(C)=O)C3=C(C)C(OC(=O)/C=C/c4ccccc4)CC(C(OC(C)=O)C12)C3(C)C (configuration not stated) , can you help?
Reply: > 100 µM

Query: Looking for the measured TGI of CCOC(=O)C(NC(=O)c1cccc(Cl)c1)(Nc1cccc(C)c1)C(F)(F)F (configuration not stated) , can you help?
Reply: 36.2 µM

Query: Looking for the measured TGI of O=C([C@H](O)[C@@H](O)c1cccc(Cl)c1)C12CC3CC(CC(C3)C1)C2 , can you help?
Reply: 7.9 µM

Query: Looking for the measured TGI of CC1=NN2C(=N)/C(=C/c3ccc(F)cc3)C(=O)N=C2S1 , can you help?
Reply: > 100 µM

Query: Looking for the measured TGI of CC(=O)NN1C(=O)C(Cc2ccccc2)c2ccccc21 (configuration not stated) , can you help?
Reply: > 100 µM

Query: Looking for the measured TGI of CO/N=C(\COc1ccc2oc(-c3ccccc3)cc(=O)c2c1)c1ccc(F)cc1 , can you help?
Reply: 35.2 µM

Query: Looking for the measured TGI of O=C(Nc1nn(C(=O)c2cccnc2)c(=O)s1)c1ccc(Cl)cc1 , can you help?
Reply: > 100 µM

----------
Tested on: OVCAR-8 ovarian
Test: NCI tumour cell line growth inhibition, 48 h; in the data active = GI50 below about 0.43 µM; inactive = the rest
Please state which outcome applies, choosing from active, inactive

Query: What outcome does the record of this test show for Cc1cccc2c1[nH]c(=O)c1c3ccccc3cn21 ?
Reply: inactive

Query: What outcome does the record of this test show for O=P(O)(O)OCC1OC(n2cnc3c(NCc4ccccc4)ncnc32)C(O)C1O (stereo not given) ?
Reply: inactive

Query: What outcome does the record of this test show for N#CC1=C(N)NC(=O)NC12Nc1ccccc1N2 ?
Reply: inactive

Query: What outcome does the record of this test show for C[N+](C)=c1ccc2nc3c(cc(NCCCNc4cc5oc6cc(=[N+](C)C)ccc-6nc5c5ccccc45)c4ccccc43)oc-2c1 ?
Reply: inactive

Query: What outcome does the record of this test show for C[CH2][Sn]([CH2]C)([O]C(=O)c1ccc(F)cc1)[O]C(=O)c1ccc(F)cc1 ?
Reply: inactive

Query: What outcome does the record of this test show for CCC[CH2][Sn]1([CH2]CCC)[S]CC[N]1S(=O)(=O)c1ccc(C)cc1 ?
Reply: inactive

Query: What outcome does the record of this test show for COc1cc2c3c(n(CCCNCCCN)c(=O)c2cc1OC)-c1cc2c(cc1C3=O)OCO2 ?
Reply: inactive

----------
System: IGROV1 ovarian
Assay: NCI tumour cell line growth inhibition, 48 h
readout_name: TGI

Solved entries (count: 2):
Query: Looking for the measured TGI of CC(C)=C/C(CC(O)(C(F)(F)F)C(F)(F)F)=N\O , can you help?
Reply: > 100 µM

Query: Looking for the measured TGI of COc1ccc2c(c1)CN1CCc3c(cc(OC)c(OC)c3OC)C1C2 (stereo not given) , can you help?
Reply: > 100 µM

New cases:
Query: Looking for the measured TGI of COc1cc2nccc(Oc3ccc(NC(=O)c4cn(C(C)C)c(=O)n(-c5ccc(F)cc5)c4=O)cc3F)c2cc1OC , can you help?
Reply: > 100 µM

Query: Looking for the measured TGI of Cc1cccc2c1CC(Cc1ccccc1C(=O)O)C2=O (stereo not given) , can you help?
Reply: > 100 µM

Query: Looking for the measured TGI of NC(=O)c1ccc[n+](C2=C([O-])c3ccccc3C(=O)/C2=N\S(=O)(=O)c2ccccc2)c1 , can you help?
Reply: 24.5 µM

----------
TGI by entry:
System: CAKI-1 renal
Experiment: NCI tumour cell line growth inhibition, 48 h
Numbered stars: 1 amine (or outer) side, 2 acyl side, 3 side chain; on linkers, the order of the positions; unused ones are H or OH. Bridge positions count the residues as written; N and C are the ends. Square brackets hold non-standard residues; d marks the D form. Peptide text beside a SMILES is read from it. I, II: the chains in the order shown. Actinocin(1to9) = Cc1c2oc3c(C)ccc(C(=O)[*:2])c3nc-2c(C(=O)[*:1])c(N)c1=O; NMeY = CN[CH](Cc1ccc(O)cc1)C(=O)O; Sar = CNCC(=O)O
Number in µM, nothing else.

Query: Looking for the measured TGI of COc1c(N2CCN(CN3C(=O)C(=Nc4ccc(S(=O)(=O)Nc5ncccn5)cc4)c4cc(Cl)ccc43)C(C)C2)c(F)cc2c(=O)c(C(=O)O)cn(C3CC3)c12 (stereo not given) , can you help?
Reply: 42.2

Query: Looking for the measured TGI of CCC[CH2][Sn]1([CH2]CCC)[S]CC[N]1S(=O)(=O)c1ccc(C)cc1 , can you help?
Reply: 1.96

Query: Looking for the measured TGI of C=C1C[C@@H]2O[C@H]3[C@H]4[C@@H](C[C@@H](C)[C@@H](OC(C)=O)[C@H]42)[C@@H](C)CO[C@@]3(C)[C@H](OC(=O)CCCCCCC)CC1=O , can you help?
Reply: 33.5

Query: Looking for the measured TGI of CSc1ncc2c(n1)-c1ccccc1OC2NC1CC1 (stereo not given) , can you help?
Reply: 86.3

Query: Looking for the measured TGI of COc1ccc(CC2C(=O)OC(C)C(NC(=O)c3c4nc5c(C(=O)NC6C(=O)NC(C(C)C)C(=O)N7CCCC7C(=O)N(C)CC(=O)N(C)C(Cc7ccc(OC)cc7)C(=O)OC6C)ccc(C)c5oc-4c(C)c(=O)c3N)C(=O)NC(C(C)C)C(=O)N3CCCC3C(=O)N(C)CC(=O)N2C)cc1 (stereo not given) (I: TVP[Sar][NMeY](Me) / II: TVP[Sar][NMeY](Me); ester I:1-I:C, II:1-II:C; linker I:N-II:N via Actinocin(1to9); configuration not given here) , can you help?
Reply: 0.734

Query: Looking for the measured TGI of NC(=O)c1ccc[n+](C2=C([O-])c3ccccc3C(=O)/C2=N\S(=O)(=O)c2ccccc2)c1 , can you help?
Reply: 37.1

Query: Looking for the measured TGI of C[N+](C)=c1ccc2nc3c(cc(NCCCNc4cc5oc6cc(=[N+](C)C)ccc-6nc5c5ccccc45)c4ccccc43)oc-2c1 , can you help?
Reply: 35.4

Query: Looking for the measured TGI of COc1cc(/C=N/N=C(\N)NO)c([N+](=O)[O-])cc1OC , can you help?
Reply: 76.2

Query: Looking for the measured TGI of CCN(CC)C(=S)N/N=C(/c1ccccc1)c1ccccn1 , can you help?
Reply: 11
